tested on: bacterial inoculum; experiment: Thermal stability: in vitro lytic assay after 30 min heating; assay type: cell-based; details: 30 minutes at 40° C.
Let's look at some molecules and their measured % of CF-301 wild-type, 40° C..

molecule	unit_string	% of CF-301 wild-type, 40° C.
pp296: Modified PlySs2 lysin, SEQ ID NO: 6: L92W, V104S, V128T, Y137S, Y164K, N184D, S198Q (protein) MTTVNEALNNVRAQVGSGVSVGNGECYALASWYERMISPDATVGLGAGVGWVSGAIGDTISAKNIGSSYNWQANGWTVSTSGPFKAGQIVTWGATPGNPYGHVSIVEAVDGDRLTILEQNYGGKRYPTRNYYSAASSRQQVVHYITPPGTVAQSAPNLAGSRSKRETGTMTVTVDALNVRRAPDTSGEIVAVYKRGEQFDYDTAIIDVNGYAWVSYIGGSGKRNYVATGATKDGKRFGNAWGTFK	%	243.1
pp65: Modified PlySs2 lysin, SEQ ID NO: 5: L92W, V104S, V128T, Y137S, S198Q, V204A, V212A; +246K (protein) MTTVNEALNNVRAQVGSGVSVGNGECYALASWYERMISPDATVGLGAGVGWVSGAIGDTISAKNIGSSYNWQANGWTVSTSGPFKAGQIVTWGATPGNPYGHVSIVEAVDGDRLTILEQNYGGKRYPTRNYYSAASSRQQVVHYITPPGTVAQSAPNLAGSRSYRETGTMTVTVDALNVRRAPNTSGEIVAVYKRGEQFDYDTAIIDVNGYAWVSYIGGSGKRNYVATGATKDGKRFGNAWGTFK	%	248.4
pp61: Modified PlySs2 lysin, SEQ ID NO: 4: L92W, V104S, V128T, Y137S, S198H, I206E; +246K (protein) MTTVNEALNNVRAQVGSGVSVGNGECYALASWYERMISPDATVGLGAGVGWVSGAIGDTISAKNIGSSYNWQANGWTVSTSGPFKAGQIVTWGATPGNPYGHVSIVEAVDGDRLTILEQNYGGKRYPTRNYYSAASSRQQVVHYITPPGTVAQSAPNLAGSRSYRETGTMTVTVDALNVRRAPNTSGEIVAVYKRGEHFDYDTVIEDVNGYVWVSYIGGSGKRNYVATGATKDGKRFGNAWGTFK	%	149.1

Recorded values, source patent US20210032294A1.
